src = patent US20230012273A1

Measured On: T1, full-length human SIRPαV1 (NP_542970.1) on cells (human, UniProt P78324 31-504)
T1 construct: one molecule for CHO-K1 and Expi-CHO transfectants (NP_542970.1) and for endogenous V1 on U-937 cells and on CD14+ monocytes of V1/V1 donors; also called CHO-hSIRPαV1; αV1 WT
Assay Info: flow cytometry, competition with CD47 tetramer, monocytes V1V1
Experimental: Cells are washed, fixed, and analyzed by flow cytometry. Median fluorescent intensity of CD14+gated population is determined and used as a measure of CD47 binding.
Reported IC50 values are given for each entry in this list.
Field: numeric (nM). Do not append units.

[
  {
    "Binder": "Antibody C (antibody, human IgG1, kappa, L234A L235A, V domains shown) VH: EVQLVESGGGLVQPGGSLRLSCAASGFTFSSYDMHWVRQATGKGLEWVSVIGIAGDTYYPGSVKGRFTISRENAKNSLYLQMNSLRVGDTAVYYCARGGSWDDAFDIWGQGTMVTVSS VL: DIQMTQSPSSLSASIGDKVTITCRASQDINNYLAWFQQKPGKAPKSLIYTASSLQSGVPSKFSGSGSGTDFTLTISSLQPEDFATYYCQQYVSYPYTFGQGTKLEIKR",
    "Value Units": "nM",
    "IC50": 0.04
  },
  {
    "Binder": "Anti-SIRPα antibody KWAR23 (antibody, V domains shown) VH: EVQLQQSGAELVKPGASVKLSCTASGFNIKDYYIHWVQQRTEQGLEWIGRIDPEDGETKYAPKFQDKATITADTSSNTAYLHLSSLTSEDTAVYYCARWGAYWGQGTLVTVSS VL: QIVLTQSPAIMSASPGEKVTLTCSASSSVSSSYLYWYQQKPGSSPKLWIYSTSNLASGVPARFSGSGSGTSYSLTISSMEAEDAASYFCHQWSSYPRTFGAGTKLELK",
    "Value Units": "nM",
    "IC50": 0.07
  },
  {
    "Binder": "anti-SIRPα antibody SIRP AB11 (antibody, V domains shown) VH: QVQLVQSGAEVKKPGASVKVSCKASGYTFRGYGISWVRQAPGQGLEWMGWISAYGGETNYAQKLQGRVTMTTDTSTSTAYMELRSLRSDDTAVYYCAREAGSSWYDFDLWGRGTLVTVSS VL: DIQMTQSPSSVSASVGDRVTITCRASQGISSWLAWYQQKPGKAPKLLIYAASNLQSGVPSRFSGSGSGTDFTLTISSLQPEDFATYYCQQGASFPITFGGGTKVEIKR",
    "Value Units": "nM",
    "IC50": 0.02
  },
  {
    "Binder": "Antibody D (antibody, human IgG1, kappa, L234A L235A, V domains shown) VH: EVQLVESGGGLVQPGGSLRLSCAASGFTFSSFDMHWVRQPTGKGLEWVSTIGIAGDTYFPGSVKGRFTISRENAKNSLYLQMNSLRAGDTAVYYCARGGNWDDALDIWGQGTMVTVSS VL: DIQMTQSPSSLSASVGDRVTITCRASQDINNYLAWFQQKPGKAPKSLIYTASSLQSGVPSKFSGSGSGTDFTLTISSLQPEDFATYYCQQYNTYPYTFGQGTKLEIKR",
    "Value Units": "nM",
    "IC50": 0.03
  },
  {
    "Binder": "Antibody E22 (antibody, human IgG1, kappa, L234A L235A, V domains shown) VH: QVQLQESGPGLVKPSETLSLTCTVSGGSIRDYYWSWIRQPPGKGLEWIGFIYYNGRTFYQSSLKSRVTISLDTSKNQFSLKMTSVTAADTAVYYCARVRAYSGIGLDGTDVWGQGTTVTVSS VL: DIVMTQSPLSLPVTPGEPASISCRSSQSLLYSTGYTYLDWYLQRPGQSPQLLIYGGSSRASGVPDRFSGSGSGTDFTLKISRVEAEDVGVFYCGQALQTPLTFGQGTKVEIKR",
    "Value Units": "nM",
    "IC50": 0.25
  }
]

IC50 recorded for this binder, Antibody B (antibody, human IgG1, kappa, L234A L235A, V domains shown) VH: QVQLVQSGAEVKKPGASVKVSCKASGYTFTGNYMHWVRQAPGQGLEWMGWINPNSGGTNYAQKFQGRVTMTRDTSISTAYMELSRLRSDDTAVYYCVSGSGWYENYYYYGMDVWGQGTTVTVSS VL: DIQMTQSPSSVSASVGDRVTITCRASQGISSWLAWYQQKPGKAPKLLIYAESSLQSGVPSRFSGSGSGTDFTLTISSLQPEDFATYYCQQANSFPLTFGGGTKVEIKR , is 2.55
